Values from paper PMC3438513

systemName: mouse CD1d (Mus musculus)
Type: binding
testParameters: read-out: IC50 in mCD1d; competitor of Biotinyl PE (2 μg/mL), CD1d dimer
measurementKind: pIC50
// scale note: pIC50 = -log10(conc_M); give the bare number

For the compound CCCCCCCC/C=C\CCCCCCCC(=O)OC[C@H](COP(=O)(O)OCCNC(=O)CCCCCN)OC(=O)CCCCCCC/C=C\CCCCCCCC , give its measured pIC50 value.
6.07

###

systemName: human CD1d (Homo sapiens, UniProt P15813)
Assay type: binding
measurementKind: IC50 (nM)
Lab book: enter the figure in nM, no units written.

For the compound CCCCCCCCCCCCCCCCCCCCCCCCCC(=O)N[C@@H](CO[C@H]1O[C@H](CO)[C@H](O)[C@H](O)[C@H]1O)[C@H](O)[C@H](O)CCCCCCCCCCCCCC [α-GalCer, α-galactosylceramide] , give its measured IC50 value.
84
